Each record here notes measured OD450.
Molecular target: T1, Peptide 8: Biotin-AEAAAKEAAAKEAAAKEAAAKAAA-Tyr-acid (N-terminal biotin; C-terminal acid)
T1 construct: Control peptide without PC
T1 peptide: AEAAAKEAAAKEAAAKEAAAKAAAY
Test: scFv ELISA
Field format: number, assumed OD450, no unit text.

Illustrative cases are given below, each with its answer.
{"columns": ["binder", "measured-number"],
 "data": [
  ["PcOxP_DB02_F04 (scFv, V domains shown, scFv in periplasmic extract) VH: EVQLLESGGGLVQPGGSLRLSCAASGFTGSDFYMEWVRQAPGKGLEWVAASRNSGNSYTTAYADSVKGRFTISRDNSKNTLYLQMNSLRAEDTAVYYCARDYFGSSYWYFDVWGQGTLVTVSS VL: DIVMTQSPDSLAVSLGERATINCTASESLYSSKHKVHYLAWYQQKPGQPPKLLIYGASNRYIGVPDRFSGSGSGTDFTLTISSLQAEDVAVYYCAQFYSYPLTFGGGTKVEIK", 0.05],
  ["PcOxP_DB02_H07 (scFv, V domains shown, scFv in periplasmic extract) VH: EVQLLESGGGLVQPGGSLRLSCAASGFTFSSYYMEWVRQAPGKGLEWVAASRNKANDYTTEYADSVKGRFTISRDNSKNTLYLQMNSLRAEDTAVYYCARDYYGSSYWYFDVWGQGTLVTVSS VL: DIVMTQSPDSLAVSLGERATINCTASESLYSSKHKVHYLAWYQQKPGQPPKLLIYGASNRYNGVPDRFSGSGSGTDFTLTISSLQAEDVAVYYCAQFYTYPLTFGGGTKVEIK", 0.05]
]}

# ---- query binder ----
Quick note, OD450 for PcOxP_DB03_E03 (scFv, V domains shown, scFv in periplasmic extract) VH: EVQLLESGGGLVQPGGSLRLSCAASGFTESDFYMEWVRQAPGKGLEWVAASRNKANDYTTEYADSVKGRFTISRDNSKNTLYLQMNSLRAEDTAVYYCARDYYGSSYWYFDVWGQGTLVTVSS VL: DIVMTQSPDSLAVSLGERATINCKSSQSLLYSKNNVNYLAWYQQKPGQPPKLLIYGESNRYIGVPDRFSGSGSGTDFTLTISSLQAEDVAVYYCAQFYEYPLTFGGGTKVEIK landed at 0.04
